# test target: FH (富马酸脱氢酶) (Homo sapiens, UniProt P07954)
# Construct: endogenous protein in desalted HeLa cell lysate, native, no tag
# Sequence (P07954 45-510): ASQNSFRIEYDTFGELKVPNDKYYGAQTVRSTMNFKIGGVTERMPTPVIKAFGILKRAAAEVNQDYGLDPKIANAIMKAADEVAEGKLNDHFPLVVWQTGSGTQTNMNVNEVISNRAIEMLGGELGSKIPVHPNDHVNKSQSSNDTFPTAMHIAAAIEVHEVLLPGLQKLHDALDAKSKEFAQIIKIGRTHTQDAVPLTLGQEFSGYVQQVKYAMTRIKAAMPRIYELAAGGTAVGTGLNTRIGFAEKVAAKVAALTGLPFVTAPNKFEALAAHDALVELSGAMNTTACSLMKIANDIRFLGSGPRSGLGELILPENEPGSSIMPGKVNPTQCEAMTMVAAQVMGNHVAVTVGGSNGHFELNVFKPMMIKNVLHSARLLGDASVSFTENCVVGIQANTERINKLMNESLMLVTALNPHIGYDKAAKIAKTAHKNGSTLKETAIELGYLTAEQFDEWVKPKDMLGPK
# measurement description: matrix thermal shift assay (mTSA), DIA proteomics, dose-response fit
# condition summary: desalted HeLa lysate in PBS, endogenous metabolites removed, 50 min room temperature, then 52 ℃ 3 min; 0.004-2 mmol/L ligand; thermal stabilisation; only four ligand concentrations; read-out: 亲和力 (EC50)
endpoint: EC50 (µM)
The answer is to be given in µM; state only the numeric part.

EC50 for O=C(O)/C=C/C(=O)O ?
548
